Tested on: cancer cells
Assay: MTT cytotoxic assay of esterification products (Cytotoxicity activity)
Assay type: cell-based, human
Details: MTT cytotoxic assay, isolated esterification products of E4A
metric: Cytotoxicity activity

Examples with their reported Cytotoxicity activity follow.
# compound, Cytotoxicity activity
rows = [
    ("CC=C(C)C(=O)OCC1(C)C(O)CCC2(C)C1CCC1(C)C2CC=C2C3CC(C)(C)C(O)C(OC(=O)C(C)=CC)C3(COC(=O)C(C)=CC)C(OC(=O)C(C)=CC)CC21C (stereo not drawn) [Compound A12]", "weak"),
    ("CCC(CC)C(=O)OCC1(C)C(O)CCC2(C)C1CCC1(C)C2CC=C2C3CC(C)(C)C(O)C(O)C3(CO)C(OC(=O)C(CC)CC)CC21C (stereo not drawn) [Compound E32]", "moderate"),
    ("CC(C)=CC(=O)OCC1(C)C(O)CCC2(C)C1CCC1(C)C2CC=C2C3CC(C)(C)C(OC(=O)C=C(C)C)C(O)C3(COC(=O)C=C(C)C)C(OC(=O)C=C(C)C)CC21C (stereo not drawn) [Compound B13]", "weak"),
    ("CCC(CC)C(=O)OCC1(C)C(OC(=O)C(CC)CC)CCC2(C)C1CCC1(C)C2CC=C2C3CC(C)(C)C(OC(=O)C(CC)CC)C(O)C3(COC(=O)C(CC)CC)C(OC(=O)C(CC)CC)CC21C (stereo not drawn) [Compound E17]", "weak"),
    ("CC=C(C)C(=O)OCC1(C)C(OC(=O)C(C)=CC)CCC2(C)C1CCC1(C)C2CC=C2C3CC(C)(C)C(O)C(OC(=O)C(C)=CC)C3(COC(=O)C(C)=CC)C(OC(=O)C(C)=CC)CC21C (stereo not drawn) [Compound A18]", "weak"),
]

I'm hoping you can list Cytotoxicity activity for every compound here, please.
1. CCC(CC)C(=O)OCC1(C)C(O)CCC2(C)C1CCC1(C)C2CC=C2C3CC(C)(C)C(OC(=O)C(CC)CC)C(O)C3(CO)C(O)CC21C (stereo not drawn) [Compound E29]
2. CCC(CC)C(=O)OCC1(C)C(OC(=O)C(CC)CC)CCC2(C)C1CCC1(C)C2CC=C2C3CC(C)(C)C(O)C(O)C3(CO)C(O)CC21C (stereo not drawn) [Compound E31]
3. CC=C(C)C(=O)OCC12C(O)CC3(C)C(=CCC4C5(C)CCC(OC(=O)C(C)=CC)C(C)(CO)C5CCC43C)C1CC(C)(C)C(O)C2O (stereo not drawn) [Compound A27]
4. CC=C(C)C(=O)OCC1(C)C(O)CCC2(C)C1CCC1(C)C2CC=C2C3CC(C)(C)C(OC(=O)C(C)=CC)C(OC(=O)C(C)=CC)C3(COC(=O)C(C)=CC)C(OC(=O)C(C)=CC)CC21C (stereo not drawn) [Compound A16]
5. CCCCCC(=O)OCC1(C)C(O)CCC2(C)C1CCC1(C)C2CC=C2C3CC(C)(C)C(O)C(O)C3(CO)C(OC(=O)CCCCC)CC21C (stereo not drawn) [Compound D32]
6. CCC(CC)C(=O)OCC1(C)C(OC(=O)C(CC)CC)CCC2(C)C1CCC1(C)C2CC=C2C3CC(C)(C)C(O)C(O)C3(COC(=O)C(CC)CC)C(OC(=O)C(CC)CC)CC21C (stereo not drawn) [Compound E10]
7. CCC(CC)C(=O)OCC12C(O)CC3(C)C(=CCC4C5(C)CCC(O)C(C)(CO)C5CCC43C)C1CC(C)(C)C(O)C2OC(=O)C(CC)CC (stereo not drawn) [Compound E26]

1: moderate; 2: moderate; 3: moderate; 4: weak; 5: moderate; 6: weak; 7: moderate

I'm hoping you can list Cytotoxicity activity for every compound here, please.
1. C=CCCC(=O)OCC1(C)C(OC(=O)CCC=C)CCC2(C)C1CCC1(C)C2CC=C2C3CC(C)(C)C(OC(=O)CCC=C)C(OC(=O)CCC=C)C3(COC(=O)CCC=C)C(O)CC21C (stereo not drawn) [Compound C15]
2. CC(C)=CC(=O)OCC1(C)C(O)CCC2(C)C1CCC1(C)C2CC=C2C3CC(C)(C)C(O)C(OC(=O)C=C(C)C)C3(COC(=O)C=C(C)C)C(OC(=O)C=C(C)C)CC21C (stereo not drawn) [Compound B12]
3. CC=C(C)C(=O)OCC12C(O)CC3(C)C(=CCC4C5(C)CCC(O)C(C)(CO)C5CCC43C)C1CC(C)(C)C(OC(=O)C(C)=CC)C2O (stereo not drawn) [Compound A25]
4. CCC(CC)C(=O)OCC1(C)C(OC(=O)C(CC)CC)CCC2(C)C1CCC1(C)C2CC=C2C3CC(C)(C)C(OC(=O)C(CC)CC)C(O)C3(COC(=O)C(CC)CC)C(O)CC21C (stereo not drawn) [Compound E11]
5. CC=C(C)C(=O)OCC1(C)C(O)CCC2(C)C1CCC1(C)C2CC=C2C3CC(C)(C)C(O)C(O)C3(CO)C(OC(=O)C(C)=CC)CC21C (stereo not drawn) [Compound A32]

weak
weak
moderate
weak
moderate
